In this section we review reported Emax values for a set of compounds.
- subject of test: Tenebrio molitor EcR (TmEcR-DEF) (Tenebrio molitor, UniProt O02035)
- Sequence (O02035 194-491): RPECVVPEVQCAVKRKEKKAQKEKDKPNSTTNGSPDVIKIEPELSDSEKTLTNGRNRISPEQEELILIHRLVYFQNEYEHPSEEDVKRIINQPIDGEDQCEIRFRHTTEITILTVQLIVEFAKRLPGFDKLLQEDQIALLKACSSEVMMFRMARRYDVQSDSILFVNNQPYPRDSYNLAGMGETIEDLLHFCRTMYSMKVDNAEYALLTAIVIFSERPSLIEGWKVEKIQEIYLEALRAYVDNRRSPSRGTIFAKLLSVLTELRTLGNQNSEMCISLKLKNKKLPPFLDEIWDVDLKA
- Sequence (P28704 285-520 partner): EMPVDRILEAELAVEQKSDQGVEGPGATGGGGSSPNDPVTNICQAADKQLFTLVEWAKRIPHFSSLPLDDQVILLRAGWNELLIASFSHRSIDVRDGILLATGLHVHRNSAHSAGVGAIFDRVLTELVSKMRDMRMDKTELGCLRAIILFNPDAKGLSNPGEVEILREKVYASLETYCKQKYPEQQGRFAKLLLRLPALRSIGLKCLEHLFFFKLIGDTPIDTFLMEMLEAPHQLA
- procedure summary: Two-hybrid gene switch assay, TmEcR-DEF in NIH3T3 cells
- condition set: NIH3T3, 48 h, read-out: rel max FI (PoA), TM
readout label: Emax (%)

- CO[C@@H]1C[C@H]2C(=O)C=C3[C@H](CC[C@]4(C)[C@@H]([C@@](C)(O)[C@H](O)CCC(C)(C)O)CC[C@@]34O)[C@@]2(C)C[C@@H]1O [20E-3-methyl ether]: 59
- CO[C@H](CCC(C)(C)O)[C@](C)(O)C1CC[C@@]2(O)C3=CC(=O)C4C[C@@H](O)[C@@H](O)CC4(C)C3CCC12C (some centres unmarked) [20E-22-methyl ether]: 81
- CO[C@H]1C[C@@]2(C)[C@@H](C[C@H]1O)C(=O)C=C1[C@@H]2CC[C@]2(C)[C@@H]([C@@](C)(O)[C@H](O)CCC(C)(C)O)CC[C@@]12O [20E-2-methyl ether]: 4
- CO[C@H]1C[C@@]2(C)[C@@H](C[C@H]1O)C(=O)C=C1[C@@H]2CC[C@]2(C)[C@@H]([C@@](C)(O)[C@@H](CCC(C)(C)O)OC)CC[C@@]12O [20E-2,22-dimethyl ether]: 13
- CO[C@@H]1C[C@H]2C(=O)C=C3[C@H](CC[C@]4(C)[C@@H]([C@@](C)(O)[C@@H](CCC(C)(C)O)OC)CC[C@@]34O)[C@@]2(C)C[C@@H]1O [20E-3,22-dimethyl ether]: 71

###

- subject of test: UniProt:P49880
- procedure summary: Two-hybrid gene switch assay, luciferase reporter, wild-type AaEcR, mouse NIH3T3 cells
- Assay type: cell-based
- condition set: FIG. 14A/14B, GAL4-EcR(DEF) with VP16-RXR-USP chimera, read-out: EC50
pEC50: −log10 of the molar value.
readout label: pEC50

* CC(CC(O)C(C)(O)C1CCC2(O)C3=CC(=O)C4CC(O)C(O)CC4(C)C3CCC12C)C(C)(C)O (centres unmarked) | 5.48
* C[C@@H]1C(=O)O[C@H](C)[C@H]1C[C@@H](O)[C@](C)(O)[C@H]1CC[C@@]2(O)C3=CC(=O)[C@@H]4C[C@@H](O)[C@@H](O)C[C@]4(C)[C@H]3CC[C@]12C | 5.52

###

In this section we review reported pEC50 values for a set of molecules.
- subject of test: wild-type Aedes aegypti EcR (AaEcR; GAL4-EcR DEF with VP16-RXR-USP chimera) (Aedes aegypti, UniProt P49880)
- Sequence (P49880 with tags, fused parts or gaps limits assumed, change not shown): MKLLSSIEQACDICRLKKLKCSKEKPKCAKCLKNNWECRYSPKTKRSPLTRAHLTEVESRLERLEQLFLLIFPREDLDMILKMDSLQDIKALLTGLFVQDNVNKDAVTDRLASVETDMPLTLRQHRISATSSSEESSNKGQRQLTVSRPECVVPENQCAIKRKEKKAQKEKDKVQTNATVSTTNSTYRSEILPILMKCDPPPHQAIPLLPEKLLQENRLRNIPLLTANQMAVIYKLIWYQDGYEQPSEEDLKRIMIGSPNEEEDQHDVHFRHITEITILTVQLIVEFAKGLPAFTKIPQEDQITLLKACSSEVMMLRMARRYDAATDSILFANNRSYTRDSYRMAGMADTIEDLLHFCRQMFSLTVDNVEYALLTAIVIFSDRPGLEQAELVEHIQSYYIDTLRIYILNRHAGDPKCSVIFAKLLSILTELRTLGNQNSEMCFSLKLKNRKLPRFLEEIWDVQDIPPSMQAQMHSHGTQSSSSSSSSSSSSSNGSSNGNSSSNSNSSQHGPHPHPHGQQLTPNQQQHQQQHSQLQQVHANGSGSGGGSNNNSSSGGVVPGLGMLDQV
- procedure summary: Two-hybrid gene switch assay, luciferase reporter, wild-type AaEcR, mouse NIH3T3 cells
- Format: cell-based
- condition set: FIG. 14A/14B, GAL4-EcR(DEF) with VP16-RXR-USP chimera, read-out: EC50
pEC50: −log10 of the molar value.
readout label: pEC50

- CC(=O)C1CCC2(O)C3=CC(=O)C4CC(O)C(O)CC4(C)C3CCC12C (stereo not drawn): < 4.48
- CC(=O)OCC(=O)O[C@H](CCC(C)(C)O)[C@](C)(O)[C@H]1CC[C@@]2(O)C3=CC(=O)[C@@H]4C[C@@H](O)[C@@H](O)C[C@]4(C)[C@H]3CC[C@]12C [20-hydroxyecdysone 22-acetoxyacetate]: ~5.48
- CC(C)(O)CC[C@@H](O)[C@](C)(O)[C@H]1CC[C@@]2(O)C3=CC(=O)[C@@H]4C[C@@H](O)[C@@H](O)C[C@]4(C)C3=CC[C@]12C [Compound 25-hydroxydacryhainansterone]: ~5.30
- CC(C)(O)CC[C@@H](OC(=O)c1ccc[nH]1)[C@](C)(O)[C@H]1CC[C@@]2(O)C3=CC(=O)[C@@H]4C[C@@H](O)[C@@H](O)C[C@]4(C)[C@H]3CC[C@]12C: ~5.00
- C[C@@H](CO)CC[C@@H](O)[C@](C)(O)[C@H]1CC[C@@]2(O)C3=CC(=O)[C@@H]4C[C@@H](O)[C@@H](O)C[C@]4(C)[C@H]3CC[C@]12C [(25R)-inokosterone]: ~5.60
- CC(C)(O)CC[C@@H](O)[C@](C)(O)[C@H]1CC[C@@]2(O)C3=CC(=O)[C@@H]4C[C@H](O)[C@@H](O)C[C@]4(C)[C@H]3CC[C@]12C: ~5.10

###

- subject of test: UniProtKB P34021
- procedure summary: Two-hybrid gene switch assay, DmEcR-DEF in NIH3T3 cells
- condition set: EC50, DmEcR gene switch, NIH3T3, Example One
readout label: EC50

* CC(C)CC[C@@H](O)[C@](C)(O)[C@H]1CC[C@@]2(O)C3=CC(=O)[C@@H]4C[C@@H](O)[C@@H](O)C[C@]4(C)[C@H]3CC[C@]12C | ~0.066 µM

###

In this section we review reported pEC50 values for a set of compounds.
- subject of test: wild-type CfEcR (GAL4-CfEcR-DEF with VP16-RXR-USP chimera) (Choristoneura fumiferana)
- Sequence (O77255 219-541, change not shown): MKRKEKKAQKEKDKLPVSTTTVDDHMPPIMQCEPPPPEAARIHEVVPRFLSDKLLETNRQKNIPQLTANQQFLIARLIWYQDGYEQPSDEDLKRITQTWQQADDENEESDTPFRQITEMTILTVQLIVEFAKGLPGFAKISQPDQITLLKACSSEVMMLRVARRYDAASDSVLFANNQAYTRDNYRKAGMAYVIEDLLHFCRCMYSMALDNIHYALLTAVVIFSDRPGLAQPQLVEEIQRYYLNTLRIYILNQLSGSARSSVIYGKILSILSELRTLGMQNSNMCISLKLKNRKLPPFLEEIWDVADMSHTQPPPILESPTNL
- Sequence (P28702 whole entry partner, the tested form may be a part): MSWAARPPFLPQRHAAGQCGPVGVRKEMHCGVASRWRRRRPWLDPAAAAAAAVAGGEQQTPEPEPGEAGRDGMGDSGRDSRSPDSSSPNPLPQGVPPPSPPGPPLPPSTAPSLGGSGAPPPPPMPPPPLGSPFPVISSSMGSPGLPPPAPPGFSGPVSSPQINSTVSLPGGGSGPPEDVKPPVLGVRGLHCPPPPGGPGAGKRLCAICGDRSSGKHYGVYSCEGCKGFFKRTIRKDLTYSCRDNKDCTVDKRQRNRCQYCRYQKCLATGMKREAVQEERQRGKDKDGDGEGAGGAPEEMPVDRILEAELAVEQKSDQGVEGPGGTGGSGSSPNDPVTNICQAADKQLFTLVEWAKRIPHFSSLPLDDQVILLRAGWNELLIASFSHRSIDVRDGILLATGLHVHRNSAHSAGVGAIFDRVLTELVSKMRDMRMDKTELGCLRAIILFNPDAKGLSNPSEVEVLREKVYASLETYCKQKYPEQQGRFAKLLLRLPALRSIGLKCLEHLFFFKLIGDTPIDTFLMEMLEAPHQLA
- procedure summary: Two-hybrid gene switch assay, luciferase reporter, wild-type CfEcR, mouse NIH3T3 cells
pEC50: −log10 of the molar value.
readout label: pEC50

* CC1(C)OC(=O)C=C1CC(O)C(C)(O)C1CCC2(O)C3=CC(=O)C4CC(O)C(O)CC4(C)C3CCC12C (stereo not drawn) [carthamosterone] | < 4.48
* CC(C)=CC[C@@H](O)[C@](C)(O)[C@H]1CC[C@@]2(O)C3=CC(=O)[C@@H]4C[C@@H](O)[C@@H](O)C[C@]4(C)[C@H]3CC[C@]12C [stachysterone C] | ~5.00
* CO[C@H]1C[C@@]2(C)[C@@H](C[C@H]1O)C(=O)C=C1[C@@H]2CC[C@]2(C)[C@@H]([C@@](C)(O)[C@@H](CCC(C)C)OC)CC[C@@]12O [Compound 19] | 4.56

###

- subject of test: wild-type Drosophila melanogaster EcR (DmEcR; GAL4-EcR DEF with VP16-RXR-USP chimera) (Drosophila melanogaster)
- Sequence (P34021 with tags, fused parts or gaps limits assumed): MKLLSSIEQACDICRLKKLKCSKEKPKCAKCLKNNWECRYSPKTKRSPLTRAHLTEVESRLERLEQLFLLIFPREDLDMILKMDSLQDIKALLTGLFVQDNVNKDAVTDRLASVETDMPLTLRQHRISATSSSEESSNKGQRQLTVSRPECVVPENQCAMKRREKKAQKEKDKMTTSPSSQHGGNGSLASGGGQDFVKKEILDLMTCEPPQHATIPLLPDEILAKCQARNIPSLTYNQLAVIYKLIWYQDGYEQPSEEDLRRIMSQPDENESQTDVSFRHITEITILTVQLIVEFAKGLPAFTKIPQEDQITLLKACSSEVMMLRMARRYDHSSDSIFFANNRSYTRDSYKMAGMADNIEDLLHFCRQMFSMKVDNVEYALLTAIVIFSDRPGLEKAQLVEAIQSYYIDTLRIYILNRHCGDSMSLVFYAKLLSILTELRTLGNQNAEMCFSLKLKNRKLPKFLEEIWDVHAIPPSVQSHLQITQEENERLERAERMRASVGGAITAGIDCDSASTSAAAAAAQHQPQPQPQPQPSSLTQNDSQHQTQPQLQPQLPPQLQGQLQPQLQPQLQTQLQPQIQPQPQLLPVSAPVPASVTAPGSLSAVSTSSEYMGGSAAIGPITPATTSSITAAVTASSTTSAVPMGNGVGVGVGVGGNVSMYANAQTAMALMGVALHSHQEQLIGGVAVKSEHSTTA
- procedure summary: Two-hybrid gene switch assay, luciferase reporter, wild-type DmEcR, mouse NIH3T3 cells
- Assay type: cell-based
- condition set: EC50, FIG. 14A/14B, GAL4-EcR(DEF) with VP16-RXR-USP chimera
In this section we review reported EC50 values for a set of compounds.
readout label: EC50

- CC(C)(O)CC[C@@H](OC(=O)c1ccc[nH]1)[C@](C)(O)[C@H]1CC[C@@]2(O)C3=CC(=O)[C@@H]4C[C@@H](O)[C@@H](O)C[C@]4(C)[C@H]3CC[C@]12C: ~20 µM
- C[C@@H]1C(=O)O[C@H](C)[C@H]1C[C@@H](O)[C@](C)(O)[C@H]1CC[C@@]2(O)C3=CC(=O)[C@@H]4C[C@@H](O)[C@@H](O)C[C@]4(C)[C@H]3CC[C@]12C [cyasterone]: > 33 µM
- CCCCCCCCCC(=O)OC1CC2(C)C(C(C)(O)C(O)CCC(C)(C)O)CCC2(O)C2=CC(=O)C3CC(O)C(O)CC3(C)C21 (centres unmarked) [turkesterone-11a-decanoate]: > 33 µM
- C=C(C)CC[C@@H](O)[C@](C)(O)[C@H]1CC[C@@]2(O)C3=CC(=O)[C@@H]4C[C@@H](O)[C@@H](O)C[C@]4(C)[C@H]3CC[C@]12C: 0.912 µM
- CCCCCC(=O)OC1CC2(C)C(C(C)(O)C(O)CCC(C)(C)O)CCC2(O)C2=CC(=O)C3CC(O)C(O)CC3(C)C21 (centres unmarked) [turkesterone-11 a -hexanoate]: > 33 µM
- CC(C)CC[C@@H](O)[C@](C)(O)[C@H]1CC[C@@]2(O)C3=CC(=O)[C@@H]4C[C@@H](O)[C@@H](O)C[C@]4(C)[C@H]3[C@H](O)C[C@]12C [ajugasterone C]: ~2 µM
- CC(C(O)CCC(C)(C)O)C1CCC2(O)C3=CC(=O)C4CC(O)CCC4(C)C3CCC12C (centres unmarked) [Compound 2-deoxyecdysone]: > 33 µM
- CC(C)(O)CC[C@@H](O)[C@](C)(O)[C@H]1CC[C@@]2(O)C3=CC(=O)[C@@H]4C[C@@H](O)[C@@H](O)[C@@H](O)[C@]4(C)[C@H]3CC[C@]12C [integristerone A]: > 33 µM
- CC(=O)OCC(=O)O[C@H](CCC(C)(C)O)[C@](C)(O)[C@H]1CC[C@@]2(O)C3=CC(=O)[C@@H]4C[C@@H](O)[C@@H](O)C[C@]4(C)[C@H]3CC[C@]12C [20-hydroxyecdysone 22-acetoxyacetate]: ~20 µM
- CC(=O)O[C@H](CCC(C)(C)O)[C@](C)(O)[C@H]1CC[C@@]2(O)C3=CC(=O)[C@@H]4C[C@@H](O)[C@@H](O)C[C@]4(C)[C@H]3CC[C@]12C [Compound 20-hydroxyecdysone-22-acetate]: > 33 µM
- CC(C)(O)CC[C@@H](O)[C@](C)(O)[C@H]1CC[C@@]2(O)C3=CC(=O)[C@@H]4C[C@@H](O)[C@@H](O)C[C@]4(C)[C@H]3[C@H](O)C[C@]12C [turkesterone]: ~15 µM
